B1: KRT18 (parent)
chain: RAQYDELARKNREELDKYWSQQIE

# Variants of: B1
# PROCEDURE SUMMARY: protein stability index of a GFP-peptide fusion (GPS, HEK-293T) (PSI 1-6); higher = more stable;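 also: lentivirally expressed fusions sorted by FACS into six bins by GFP to DsRed ratio, PSI derived from sequencing read proportions per bin multiplied by bin number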
# MEASUREMENT PARAMETERS: c terminus: a fixed tail appended
Catalogue of protein stability index readings, one per entry.
# output: bare number, no unit

The examples below pair each entry with its known result.
INSERT INTO assay_data (mutation_list, data_value) VALUES
  ('L7I', 3.41),
  ('R1K', 2.29),
  ('R12Q', 4.12),
  ('E24P', 3.87),
  ('E24C', 3.05),
  ('S20I', 2.31),
  ('Y4M', 3.18),
  ('L15G', 4.07),
  ('D16E', 3.39),
  ('D5C', 3.33);

Input: Any idea what its protein stability index is? The variant is `Q21C`
Output: 4

Input: Any idea what its protein stability index is? The variant is `R1F`
Output: 2.47

Input: Any idea what its protein stability index is? The variant is `E14Y`
Output: 3.07

Input: Any idea what its protein stability index is? The variant is `E6S`
Output: 3.24
